Target: hDGAT1 (Homo sapiens, UniProt O75907)
Sequence (O75907 whole entry): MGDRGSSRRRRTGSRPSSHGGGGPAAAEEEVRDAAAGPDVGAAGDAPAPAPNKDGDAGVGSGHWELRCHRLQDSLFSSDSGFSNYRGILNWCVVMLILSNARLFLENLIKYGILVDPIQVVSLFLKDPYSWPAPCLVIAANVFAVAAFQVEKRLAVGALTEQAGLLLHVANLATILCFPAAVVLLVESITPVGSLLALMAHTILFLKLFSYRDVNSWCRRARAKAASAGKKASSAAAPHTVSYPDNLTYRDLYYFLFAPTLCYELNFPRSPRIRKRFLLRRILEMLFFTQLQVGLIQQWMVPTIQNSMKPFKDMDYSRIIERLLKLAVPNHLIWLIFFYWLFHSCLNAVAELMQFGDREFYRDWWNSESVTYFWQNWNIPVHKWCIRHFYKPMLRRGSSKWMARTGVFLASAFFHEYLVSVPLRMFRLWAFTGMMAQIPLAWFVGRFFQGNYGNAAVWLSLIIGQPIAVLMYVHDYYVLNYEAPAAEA
Assay: In-vitro DGAT1 assay (14C oleoyl CoA, hDGAT1 microsomes from Sf9 cells)
Settings: read-out: % Inhibition of hDGAT1
Task for the reader: assign each of the following compounds its reported inhibition at 1 µM.

{"smiles.notation": "O=C(Nc1ccc(-c2ccc3c(c2)C(=O)N([C@H](C(=O)O)c2ccccc2)C3)cc1)Nc1cccc(C(F)(F)F)c1", "inhibition at 1 µM": "10 to 50%"}
{"smiles.notation": "O=C(Nc1ccc(-c2ccc3c(c2)C(=O)N(C2(C(=O)O)CCCC2)C3)cc1)c1ccc(OC(F)(F)F)cc1", "inhibition at 1 µM": "> 50%"}
{"smiles.notation": "CC(C)[C@@H](C(=O)O)N1Cc2cc(-c3ccc(NC(=S)Nc4ccccc4C(F)(F)F)cc3)ccc2C1=O", "inhibition at 1 µM": "10 to 50%"}
{"smiles.notation": "CC(C)[C@@H](C(=O)O)N1Cc2ccc(-c3ccc(NC(=O)c4ccccc4)cc3)cc2C1=O", "inhibition at 1 µM": "10 to 50%"}

Hi there! I need inhibition at 1 µM for each item below, if you can.
1. CC(C)[C@@H](C(=O)O)N1Cc2cc(-c3ccc(NC(=O)Nc4ccccc4F)cc3)ccc2C1=O
2. CC(C)[C@@H](C(=O)O)N1Cc2ccc(-c3ccc(NC(=O)c4ccc(C(F)(F)F)cc4F)cc3)cc2C1=O
3. CC(C)[C@@H](C(=O)O)N1Cc2ccc(-c3ccc(NC(=O)c4ccc(N5CCCC5)nc4)cc3)cc2C1=O
4. COc1cc(C(=O)Nc2ccc(-c3ccc4c(c3)C(=O)N([C@H](C(=O)O)C(C)C)C4)cc2)cc(OC)c1OC
5. CCCCOc1ccc(C(=O)Nc2ccc(-c3ccc4c(c3)C(=O)N([C@H](C(=O)O)C(C)C)C4)cc2)cc1
6. CC(C)[C@@H](C(=O)O)N1Cc2ccc(-c3ccc(NC(=S)Nc4cccc(F)c4)cc3)cc2C1=O
7. O=C(Nc1ccc(-c2ccc3c(c2)CN([C@H](C(=O)O)c2ccccc2)C3=O)cc1)Nc1cccc(C(F)(F)F)c1
8. CC(C)[C@@H](C(=O)O)N1Cc2ccc(-c3ccc(NC(=O)c4ccc(C5CCCCC5)cc4)cc3)cc2C1=O

A:
1. > 50%
2. > 50%
3. > 50%
4. > 50%
5. > 50%
6. 10 to 50%
7. 10 to 50%
8. > 50%

Provide inhibition at 1 µM values for the following items, in order.
1. CC(C)[C@@H](C(=O)O)N1Cc2ccc(-c3ccc(NC(=O)c4ccc(-c5cnco5)cc4)cc3)cc2C1=O
2. CC(C)[C@@H](C(=O)O)N1Cc2ccc(-c3ccc(NC(=O)c4ccc5c(c4)C(C)(C)CCC5(C)C)cc3)cc2C1=O
3. CCCCCc1ccc(C(=O)Nc2ccc(-c3ccc4c(c3)C(=O)N([C@H](C(=O)O)C(C)C)C4)c(C(F)(F)F)c2)cc1
4. CC(C)[C@@H](C(=O)O)N1Cc2ccc(-c3ccc(NC(=O)Nc4ccc5c(c4)CCC5)cc3C(F)(F)F)cc2C1=O
5. CC(C)[C@@H](C(=O)O)N1Cc2ccc(-c3ccc(NC(=O)Nc4ccccc4)cc3)cc2C1=O
6. O=C(Nc1ccc(-c2ccc3c(c2)CN([C@@H](Cc2ccccc2)C(=O)O)C3=O)cc1)Nc1cccc(C(F)(F)F)c1
7. O=C(O)CN1Cc2cc(-c3ccc(NC(=O)Nc4cccc(C(F)(F)F)c4)cc3)ccc2C1=O

A:
1: > 50%; 2: > 50%; 3: 10 to 50%; 4: 10 to 50%; 5: 10 to 50%; 6: 10 to 50%; 7: 10 to 50%

Hi there! I need inhibition at 1 µM for each item below, if you can.
1. O=C(Nc1ccc(-c2ccc3c(c2)C(=O)N(C2(C(=O)O)CC2)C3)cc1)c1ccc(C(F)(F)F)cc1
2. CC(C)[C@@H](C(=O)O)N1Cc2cc(-c3ccc(NC(=S)Nc4ccc(Cl)cc4)cc3)ccc2C1=O
3. COc1ccc(NC(=O)Nc2ccc(-c3ccc4c(c3)C(=O)N([C@H](C(=O)O)C(C)C)C4)cc2)cc1
4. Cc1ccc(NC(=O)Nc2ccc(-c3ccc4c(c3)C(=O)N([C@H](C(=O)O)C(C)C)C4)c(C(F)(F)F)c2)cc1C
5. O=C(Nc1ccc(-c2ccc3c(c2)C(=O)N(C2(C(=O)O)CCCC2)C3)cc1)c1ccc(Cl)cc1
6. CC(C)[C@@H](C(=O)O)N1Cc2ccc(-c3ccc(NC(=O)c4cc(-c5ccc(F)cc5)no4)cc3)cc2C1=O
7. CC(C)[C@@H](C(=O)O)N1Cc2cc(-c3ccc(NC(=O)c4cccc(F)c4)cc3)ccc2C1=O

A:
1: > 50%; 2: 10 to 50%; 3: 10 to 50%; 4: 10 to 50%; 5: > 50%; 6: > 50%; 7: 10 to 50%

Please go through the list and note inhibition at 1 µM for each compound.
1. CC(C)[C@@H](C(=O)O)N1Cc2cc(-c3ccc(NC(=O)Nc4cccc(F)c4)cc3)ccc2C1=O
2. CC(C)[C@@H](C(=O)O)N1Cc2ccc(-c3ccc(NC(=O)Nc4ccc(F)cc4F)cc3)cc2C1=O

A:
["> 50%", "10 to 50%"]
